test: qHTS screen for small molecules that induce genotoxicity in human embryonic kidney (HEK293T) cells expressing luciferase-tagged ELG1; settings: HEK293T ELG1-luciferase reporter, luminescence, 16 h; series mostly up to 46 µM; note: nearly all actives have a fitted effect of over 60% in size
In all, about 330,000 compounds went through this assay and about 4,200 (1.3%) were called active. About 6% were inconclusive and are not listed. Calls come from the whole dose curve; as a rule, active = well fitted activation curve with a large enough effect; inconclusive = small, poorly fitted or top-dose-only effect; inactive = no such curve, though single readings can be large or run the other way. This is one part of a sample in which actives are shown more often than they occur.
Outcomes: active, inactive

• O=C(Nc1ccc2c(c1)OCCO2)c1cnccn1 = active
• Cc1cc(CO)nn1-c1ccc([N+](=O)[O-])cc1 = inactive
• O=C(CCN1C(=O)c2ccncc2C1=O)Nc1ccc2c(c1)OCCO2 = inactive
• CC(C)(C)OC(=O)C[C@@H]1C/C=C\C[C@@H](CC(=O)N[C@H](CO)Cc2ccccc2)C(=O)NCCOC1=O = inactive
• COc1cc(/C=N/N2CCN(c3ccccc3)CC2)ccc1OC(C)=O = inactive
• Cn1ccnc1SCC(=O)Nc1ccc2c(c1)OCCO2 = active

====

test: qHTS screen for small molecules that induce genotoxicity in human embryonic kidney (HEK293T) cells expressing luciferase-tagged ELG1; settings: HEK293T ELG1-luciferase reporter, luminescence, 16 h; series mostly up to 46 µM; note: nearly all actives have a fitted effect of over 60% in size
Screen size: about 330,000 compounds; about 4,200 (1.3%) were called active. Roughly 6% stayed inconclusive and do not appear here. Calls come from the whole dose curve; as a rule, active = well fitted activation curve with a large enough effect; inconclusive = small, poorly fitted or top-dose-only effect; inactive = no such curve, though single readings can be large or run the other way. The sample as a whole holds a higher share of actives than the screen did.
Outcomes: active, inactive

- Cc1cc(CN(C)C(=O)c2cc(COc3ccc(C)c(C)c3)on2)n[nH]1: active
- CC(C)C(=O)Nc1ccc2c(c1)oc1ccccc12: active
- O=C(CSc1nccn1-c1cccc(F)c1)NC1CCCC1: inactive
- CCN(CC)C(=O)[C@H]1C[C@H](CC(=O)NCC23CC4CC(CC(C4)C2)C3)C(=O)N2CCc3c([nH]c4cc(CCC(=O)N(C)C)ccc34)[C@]12C: inactive
- Cc1cc(=O)oc2cc(NC(=O)C(C)Oc3ccccc3)ccc12 (configuration not stated): inactive
- COc1cc(SC)ccc1C(=O)N(Cc1ccccc1)c1ccccc1: inactive
- COc1cc(SC)ccc1C(=O)Nc1nc(C)cs1: active
- COc1ccc(NC(=O)CCCC2CCCCC2)c(OC)c1: active
- O=C1COc2ccc(C(=O)COC(=O)c3ccccc3Cl)cc2N1: inactive
- Cc1ccc(C(=O)c2c(NC(=O)c3ccccc3)sc(C)c2C)cc1: inactive
- O=C(Nc1sc2c(c1C(=O)O)CCC2)c1ccccc1F: inactive
- COC(=O)[C@]1(Cc2ccccc2)N[C@H](CN(C)S(=O)(=O)c2ccc(OC(F)(F)F)cc2)[C@@H]2C(=O)N(Cc3ccccc3)C(=O)[C@@H]21: inactive
- CC(Sc1nncn1C)C(=O)NCCC1=CCCCC1 (configuration not stated): inactive
- CCN(C(=O)CSc1cccc[n+]1[O-])c1ccccc1: inactive
- CN(Cc1cccnc1)C(=O)c1cc(COc2ccc3ncccc3c2)on1: inactive
- COc1ccc2c(CC(=O)NNC(=O)c3ccccc3F)coc2c1: inactive
- COc1ccc(NC(=O)CCN2CCCC2)c(OC)c1: inactive
- CN(C)c1nc(=Nc2cccc(Cl)c2)ss1: inactive
- CN(C)C(=O)CCc1ccc2c3c([nH]c2c1)[C@]1(CCc2ccccc2)[C@@H](C(=O)N2CCCCC2)C[C@H](CC(=O)NCCC2=CCCCC2)C(=O)N1CC3: inactive
- CC(C)C(=O)Nc1ccc2oc(=O)ccc2c1: inactive
- Cc1sc(NC(=O)c2ccc3ncsc3c2)c(C(N)=O)c1C: active
- Clc1cccc(N=C2NN=C(c3ccc4c(c3)OCCO4)CS2)c1: active

====

test: qHTS screen for small molecules that induce genotoxicity in human embryonic kidney (HEK293T) cells expressing luciferase-tagged ELG1; conditions: HEK293T ELG1-luciferase reporter, luminescence, 16 h; series mostly up to 46 µM; note: nearly all actives have a fitted effect of over 60% in size; note: potency is the fitted concentration of half-maximal effect
The whole screen tested about 330,000 compounds, of which about 4,200 (1.3%) were called active. Inconclusive results (about 6%) are left out. This excerpt belongs to a sample that is enriched for actives.
parameter: Potency

* O=C(NCc1ccccn1)c1cc2ccccc2oc1=O | 14.6 µM (active)
* C=CC[C@@H](CC(=O)N[C@H](CO)Cc1ccccc1)C(=O)N[C@@H](COC(=O)[C@@H](CC=C)Cc1ccc(F)cc1)Cc1c[nH]c2ccccc12 | inactive
* O=C(NCC#CCSc1nnc(-c2cccc3ccccc23)o1)c1cccs1 | inactive
* O=C(C(=O)N1CCc2ccccc2C1)N1CCc2ccccc2C1 | inactive
* Cc1ccc(C2(C)NC(=O)N(CC(=O)N3CC(=O)Nc4ccccc43)C2=O)cc1 (centres undefined) | inactive
* COc1cccc(NC(=O)COc2cccnc2[N+](=O)[O-])c1 | inactive
* O=C1[C@@H](c2ccccc2)[C@@H](c2ccccc2)N1c1cccnc1 | inactive
* CCCCOC(=O)Nc1nnc(CC(=O)NCc2ccccc2)s1 | inactive
* CCCCNC(=O)C(C)N(CCN(C)C)C(=O)CCCCCN1C(=O)NC(c2ccc(Cl)cc2)C(C(=O)OCc2ccccc2)=C1C (centres undefined) | inactive
* O=C1/C(=C/c2cccs2)CCc2ccccc21 | 8.2 µM (active)
* Cc1ccc(C(=O)Nc2ccc3c(c2)OCCO3)cc1S(=O)(=O)N1CCOCC1 | inactive
* CN1CCN(c2ccc(NC(=O)c3cc(Cl)c4c(c3)OCCO4)cc2)CC1 | inactive
* CC(=NCc1ccco1)c1c(C(F)(F)F)[nH]n(-c2nc3ccccc3s2)c1=O | 2.59 µM (active)
* CCCCCCOC(=O)NCC(O)c1ccccc1 (centres undefined) | 18.4 µM (active)
* COC(=O)c1ccc(NC(=O)c2ccco2)cc1 | 20.6 µM (active)
* COc1cc(OC)cc(C(=O)NC(C(=O)N2CCC2)C(C)C)c1 (centres undefined) | inactive
* CCC1C/C(=C/c2cccs2)C(=O)/C(=C/c2cccs2)C1 (centres undefined) | inactive
* Cc1ccc(NC(=O)NC(=O)CSc2nnc(-c3ccc(OC(F)F)cc3)n2N)c(C)c1 | inactive
* O=C(Nc1nnc(-c2ccccc2)o1)c1cccc(S(=O)(=O)N2CCOCC2)c1 | inactive
* COc1ccc(OCC(=O)NNC(=O)C2CCC2)cc1 | inactive
* Cc1ccc(-c2csc(NC(=O)Cn3[nH]c(=O)c4ccccc4c3=O)n2)cc1 | inactive
* CN1CCN(c2ccc(NC(=O)c3ccccc3)cc2)CC1 | 10.3 µM (active)
* CC(=O)N(O)CCCCCNC(=O)CCC(=O)N(O)CCCCCNC(=O)CCC(=O)N(O)CCCCCNC(=O)CCC(=O)O | inactive
* CCc1ccc(-c2cc(C(=O)NCc3ccco3)c3ccccc3n2)s1 | inactive
* CN1C/C(=C/c2cccs2)C(=O)/C(=C\c2cccs2)C1 | inactive
* Cc1cc(C(=O)NCCc2ccc(Cl)cc2)c(C)o1 | 18.3 µM (active)
* CCC(=O)c1ccc(OCC(=O)OCC(=O)N2CCc3ccccc3C2)cc1 | inactive
* CCOC(=O)c1ccc(NC(=O)CNC(=O)c2ccco2)cc1 | inactive
* COc1ccc2sc(-c3ccc(S(C)(=O)=O)cc3)c(C#Cc3cncn3C)c2c1 | inactive
* Cc1cccc(-n2ncc(Cl)c(Cl)c2=O)c1 | inactive
* O=C(Nc1cc(C(F)(F)F)ccc1Cl)c1cc2nc3c(c(C(F)(F)F)n2n1)CCCC3 | 8.2 µM (active)
* CCC1(CC)NC(=O)N(Cc2nc3ccccc3s2)C1=O | inactive
* Cc1cc(C(=O)NCCc2ccc(Cl)cc2)n(-c2ccccc2)n1 | inactive
* Cc1c(NC(=O)CN(C)CC(=O)Nc2ccc(F)c(F)c2F)c(=O)n(-c2ccccc2)n1C | inactive
* O=C(COc1ccc([N+](=O)[O-])cc1Cl)Nc1ccc2[nH]c(=O)[nH]c2c1 | inactive
* O=C1CCC/C=C\C[C@@H](CC(=O)N(CCO)Cc2ccccc2)C(=O)NCCO1 | inactive
* O=C(Cn1c(=S)nc2ccccn21)N1CCc2ccccc2C1 | 20.6 µM (active)
* Cc1cc(C(=O)NNC(=O)c2ccccc2O)c(C)o1 | inactive
* COc1ccc(-n2ncc3c(SCC(=O)NNC(C)=O)ncnc32)cc1 | inactive
* C=C(C)CSc1nnc(-c2ccc(C)cc2)n1N | 10 µM (active)
* O=C(N=C1SC2CS(=O)(=O)CC2N1c1ccccc1)c1ccccc1 (centres undefined) | inactive
* Cc1ccc(-c2csc(NC3OC(=O)c4ccccc43)n2)cc1 (centres undefined) | inactive
* Cc1ccc(-c2nnc(SC(C)C#N)n2N)cc1 (centres undefined) | inactive
* COc1cc(OC)cc(-c2sc3ccc(OC)cc3c2-c2ccc3cc[nH]c3c2)c1 | inactive

====

assay: qHTS screen for small molecules that induce genotoxicity in human embryonic kidney (HEK293T) cells expressing luciferase-tagged ELG1; conditions: HEK293T ELG1-luciferase reporter, luminescence, 16 h; series mostly up to 46 µM; note: nearly all actives have a fitted effect of over 60% in size; note: potency is the fitted concentration of half-maximal effect
Hit rate of the full screen: of about 330,000 compounds, about 4,200 (1.3%) were called active. Roughly 6% stayed inconclusive and do not appear here. Many of the other results were omitted from the sample, so actives are more common in it than they were.
parameter: Potency

• CCOC(=O)COc1cc(O)c2c(=O)cc(-c3ccccc3)oc2c1 = inactive
• CCCSc1nc2sc3c(c2c(=O)n1-c1ccc(OC)cc1)CCN(C)C3 = inactive
• COc1ccc(-c2cc(=O)c3c(O)cc(O[C@@H]4O[C@H](CO[C@@H]5O[C@@H](C)[C@H](O)[C@@H](O)[C@H]5O)[C@@H](O)[C@H](O)[C@H]4O)cc3o2)cc1O = inactive
• Cc1ccc(S(=O)(=O)NC[C@H]2O[C@@H](n3cnc4c(N)ncnc43)[C@H](O)[C@@H]2O)s1 = inactive
• Cc1ccc(C)c(NC(=O)COC(=O)c2nn(C)c(=O)c3ccccc23)c1 = inactive
• COc1ccc(Br)cc1CN(C)C(=O)C1CC(=O)N(C2CCCC2)C1 (centres undefined) = inactive
• COc1c(O)cc2oc(-c3ccc(O)c(O)c3)cc(=O)c2c1O = 20.6 µM (active)
• Cc1noc(C)c1C(=O)OC(C)C(=O)Nc1ccc2c(c1)OCO2 (centres undefined) = inactive
• CCCn1nnc2sc3c(c2c1=O)CCC(C)C3 (centres undefined) = 11.6 µM (active)

Reference source for all entries: PubChem BioAssay AID504466
